These entries and their values trace back to the supplement of paper PMC10724198.

# System: Saccharomyces cerevisiae;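 note: PSI per variant is the weighted mean of its sequencing read distribution over the sorted stability bins, counting only variants with over 10 reads summed across bins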
# test-summary: protein stability index of tFT-peptide fusion in deletion strain of DOA10 (PSI (0-1 scale)); higher = more stable (slower turnover)

sequence-entry | measured-target | protein stability index
AITLDMCPLLLR | Saccharomyces cerevisiae | 0.68
GLYMCSVGCWFRL | Saccharomyces cerevisiae | 0.624
RSMRVLLPLYFR | Saccharomyces cerevisiae | 0.653
GLYMCHVGCWFR | Saccharomyces cerevisiae | 0.629
NLYMCSVGCWFR | Saccharomyces cerevisiae | 0.657
CLVSLPILLFFF | Saccharomyces cerevisiae | 0.42
GLYMCSVGCWTR | Saccharomyces cerevisiae | 0.601
DVTRLDAIYFRI | Saccharomyces cerevisiae | 0.739
AITTPMCPLLLR | Saccharomyces cerevisiae | 0.668
RVTILDAIYFRI | Saccharomyces cerevisiae | 0.663
RSLRVMLPLYFR | Saccharomyces cerevisiae | 0.625
AITLPMCPLLLRT | Saccharomyces cerevisiae | 0.441
KITLPMCPLLLR | Saccharomyces cerevisiae | 0.653
RSLKVLLPLYFR | Saccharomyces cerevisiae | 0.666
RSLRVLVPLYFR | Saccharomyces cerevisiae | 0.657
RSLRVLLPLYFN | Saccharomyces cerevisiae | 0.165
CLVSLYILLFFR | Saccharomyces cerevisiae | 0.347
GLYMCSVNCWFR | Saccharomyces cerevisiae | 0.566
CLVSLPILLFFRL | Saccharomyces cerevisiae | 0.512
CLNSLPILLFFR | Saccharomyces cerevisiae | 0.627
AMTLPMCPLLLR | Saccharomyces cerevisiae | 0.646
AITLPMCTLLLR | Saccharomyces cerevisiae | 0.675
CLVSLDILLFFR | Saccharomyces cerevisiae | 0.355
GFYMCSVGCWFR | Saccharomyces cerevisiae | 0.632
AITLPMCPLLLRS | Saccharomyces cerevisiae | 0.554
GLYMCSVQCWFR | Saccharomyces cerevisiae | 0.416
AITLPWCPLLLR | Saccharomyces cerevisiae | 0.662
RSLRSLLPLYFR | Saccharomyces cerevisiae | 0.702
CLVSLPIALFFR | Saccharomyces cerevisiae | 0.631
CLVSLPILLFFRF | Saccharomyces cerevisiae | 0.483
AITLPMCPLLLRA | Saccharomyces cerevisiae | 0.3
CLVSLPILLGFR | Saccharomyces cerevisiae | 0.653
RSWRVLLPLYFR | Saccharomyces cerevisiae | 0.692
RLYMCSVGCWFR | Saccharomyces cerevisiae | 0.644
RSKRVLLPLYFR | Saccharomyces cerevisiae | 0.675
AITLPMCRLLLR | Saccharomyces cerevisiae | 0.651
RVTKLDAIYFRI | Saccharomyces cerevisiae | 0.667
RVMRLDAIYFRI | Saccharomyces cerevisiae | 0.656
RVTRLLAIYFRI | Saccharomyces cerevisiae | 0.287
CLVSLWILLFFR | Saccharomyces cerevisiae | 0.365
AITLCMCPLLLR | Saccharomyces cerevisiae | 0.665
